target: human B1 (Homo sapiens, UniProt P46663); test: Calcium flux assay for Bradykinin B1 antagonist, CHO-K1 cell line expressing human B1; conditions: CHO-K1 cells expressing human B1, agonist Lys-(Des-Arg)-Bradykinin, read-out: Potency (IC50 value against human B1)
Sequence (P46663 whole entry): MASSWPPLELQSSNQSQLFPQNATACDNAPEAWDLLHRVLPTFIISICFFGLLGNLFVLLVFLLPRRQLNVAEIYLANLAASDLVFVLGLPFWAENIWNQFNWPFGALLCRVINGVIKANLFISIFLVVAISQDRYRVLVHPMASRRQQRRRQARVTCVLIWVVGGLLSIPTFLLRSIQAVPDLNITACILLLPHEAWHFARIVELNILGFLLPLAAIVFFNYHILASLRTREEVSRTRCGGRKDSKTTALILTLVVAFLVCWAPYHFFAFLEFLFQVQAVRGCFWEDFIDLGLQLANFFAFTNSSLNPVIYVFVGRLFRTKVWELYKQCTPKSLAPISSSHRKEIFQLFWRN
pIC50: −log10 of the molar value. Counter-ions that a name gives are not always drawn.
This listing pairs compounds with measured pIC50.

[
  {
    "Compound": "COc1cc(C)c(S(=O)(=O)N(C)Cc2nnc(C(=O)N3CCN(CC4CCN(C(C)C)CC4)CC3)o2)c(C)c1 [Ex 264, trifluoroacetate]",
    "Experimental value": "6.00 to 7.00"
  }
]

Exam item: Supply pIC50 value. Item: COc1cc(C)c(S(=O)(=O)N(Cc2nc(C(=O)N3CCC(O)(/C=C/c4cccnc4)CC3)co2)C2CC2)c(C)c1 [Ex 240, trifluoroacetate]
Marked response: 7.00 to 8.00

Exam item: Tell me measured pIC50 for `COc1cc(C)c(S(=O)(=O)N(Cc2nc(C(=O)N(C)Cc3ccc(CN4CC(O)C4)cc3)co2)C2CC2)c(C)c1` please.
Marked response: 7.00 to 8.00

Exam item: Assign pIC50 to the following record: `COc1cc(C)c(S(=O)(=O)N(Cc2cc(C(=O)N3CCN(C4CCN(C)CC4)CC3)co2)C2CC2)c(C)c1`
Marked response: 6.00 to 7.00

Exam item: Return reported pIC50. Input compound: COc1cc(C)c(S(=O)(=O)N(Cc2cc(C(=O)N3CCN(CCc4ccncc4)CC3)co2)C2CC2)c(C)c1 [Ex 110, trifluoroacetate]
Marked response: 6.00 to 7.00

Exam item: Specify pIC50 for COc1cc(C)c(S(=O)(=O)N(Cc2nc(C(=O)N3CCN(Cc4ccc(OC)nc4)CC3)co2)C2CC2)c(C)c1 [Ex 235, trifluoroacetate] and stop.
Marked response: > 8.00

Exam item: Output pIC50 of `COc1cc(C)c(S(=O)(=O)N(Cc2nc(C(=O)N3CCN(Cc4cncn4C)CC3)co2)C2CC2)c(C)c1`
Marked response: 6.00 to 7.00

Exam item: Give the measured pIC50 for COc1cc(C)c(S(=O)(=O)N(Cc2nc(C(=O)N(C)Cc3nnc(CN4CCCC4)s3)co2)C2CC2)c(C)c1 [Ex 199, trifluoroacetate]
Marked response: > 8.00

Exam item: State its pIC50: COc1cc(C)c(S(=O)(=O)N(Cc2nc(C(=O)N3CC4CCNCC4C3)co2)C2CC2)c(C)c1 (centres unmarked)
Marked response: 6.00 to 7.00

Exam item: Identify pIC50 associated with the compound `COc1cc(C)c(S(=O)(=O)N(C)Cc2cc(C(=O)NCCc3ccc(CN4CCCC4)cc3)co2)c(C)c1`
Marked response: 6.00 to 7.00

Exam item: Dear colleague, please send me the reported pIC50 for COc1cc(C)c(S(=O)(=O)N(Cc2cc(C(=O)N(C)CCc3ccc(C4=NCCN4)cc3)co2)C2CC2)c(C)c1 [Ex 84, trifluoroacetate] when you can.
Marked response: > 8.00
